Provenance of the data: patent US20090048260A1

# tested system: wild-type CFTR (CFTR-WT) (Homo sapiens)
# Sequence (P13569 whole entry): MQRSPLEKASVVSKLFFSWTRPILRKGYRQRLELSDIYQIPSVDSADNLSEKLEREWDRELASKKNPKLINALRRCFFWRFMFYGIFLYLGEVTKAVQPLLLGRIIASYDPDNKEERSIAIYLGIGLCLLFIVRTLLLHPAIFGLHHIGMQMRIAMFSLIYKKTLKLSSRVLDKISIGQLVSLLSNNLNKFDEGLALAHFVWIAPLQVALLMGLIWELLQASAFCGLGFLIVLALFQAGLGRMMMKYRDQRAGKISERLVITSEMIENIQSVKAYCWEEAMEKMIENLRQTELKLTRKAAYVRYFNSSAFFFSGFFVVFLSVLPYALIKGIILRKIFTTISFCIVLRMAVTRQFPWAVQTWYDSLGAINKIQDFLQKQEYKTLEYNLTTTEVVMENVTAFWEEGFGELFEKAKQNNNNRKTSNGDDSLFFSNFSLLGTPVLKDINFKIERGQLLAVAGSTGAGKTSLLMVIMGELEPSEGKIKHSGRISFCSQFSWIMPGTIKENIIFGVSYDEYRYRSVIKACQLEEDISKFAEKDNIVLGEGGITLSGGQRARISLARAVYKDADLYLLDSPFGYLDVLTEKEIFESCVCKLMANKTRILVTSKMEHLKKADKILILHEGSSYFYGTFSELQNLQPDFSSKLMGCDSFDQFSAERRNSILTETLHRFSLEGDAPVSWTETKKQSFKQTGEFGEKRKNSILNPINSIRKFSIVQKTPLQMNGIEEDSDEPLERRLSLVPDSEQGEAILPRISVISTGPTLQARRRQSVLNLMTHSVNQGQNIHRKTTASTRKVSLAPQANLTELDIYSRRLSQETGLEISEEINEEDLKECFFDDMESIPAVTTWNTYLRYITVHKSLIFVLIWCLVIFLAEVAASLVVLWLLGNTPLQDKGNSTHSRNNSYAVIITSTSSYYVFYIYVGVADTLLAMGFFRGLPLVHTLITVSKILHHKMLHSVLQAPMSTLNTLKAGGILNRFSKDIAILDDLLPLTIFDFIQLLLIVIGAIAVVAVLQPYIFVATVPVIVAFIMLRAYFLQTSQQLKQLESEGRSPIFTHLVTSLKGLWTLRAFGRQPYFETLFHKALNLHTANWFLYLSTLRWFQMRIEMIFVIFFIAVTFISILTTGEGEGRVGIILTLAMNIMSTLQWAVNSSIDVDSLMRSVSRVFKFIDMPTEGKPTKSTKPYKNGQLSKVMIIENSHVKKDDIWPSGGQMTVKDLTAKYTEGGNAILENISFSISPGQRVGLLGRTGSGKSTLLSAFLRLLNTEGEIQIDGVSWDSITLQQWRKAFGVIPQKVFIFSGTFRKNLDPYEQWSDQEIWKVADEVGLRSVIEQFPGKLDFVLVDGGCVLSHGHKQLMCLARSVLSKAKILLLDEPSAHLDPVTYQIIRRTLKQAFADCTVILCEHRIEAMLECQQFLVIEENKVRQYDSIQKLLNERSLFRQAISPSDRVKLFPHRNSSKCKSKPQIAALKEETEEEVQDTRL
# assay details: iodide efflux, activation of the CFTR chloride channel in CHO cells
measurement label: EC50 (nM)
Write down the numeric answer in nM and omit the unit.

Recorded EC50 for CCCCc1c(-c2ccc(O)cc2)[nH]c2nccnc12 , please?
152
